Form field: melting point (one value per entry).
ATTRIBUTE MEASURED: melting point

{"COMPOUND": "COC(=O)C(=O)c1ccc(OCCCc2ccc3ccccc3c2)cc1", "REPORTED MEASUREMENT": "97 to 99 °C"}
{"COMPOUND": "CC(CCCCC(=O)O)C1CCC2C3CCC4CC(O)CCC4(C)C3CC(O)C12C (stereo unspecified)", "REPORTED MEASUREMENT": "191 to 193 °C"}
{"COMPOUND": "CC(C)(CC(=O)O)C(Br)CC(Cl)(Cl)Cl (stereo unspecified)", "REPORTED MEASUREMENT": "123 to 124 °C"}
{"COMPOUND": "NNC(=O)CCSCCOC1OC(CO)C(O)C(O)C1O (stereo unspecified)", "REPORTED MEASUREMENT": "178 to 179 °C"}
{"COMPOUND": "CC(C)(C)c1nc(C(=O)c2ncc[nH]2)nc(C(C)(C)C)c1O", "REPORTED MEASUREMENT": "217 to 220 °C"}
{"COMPOUND": "O=C(CCl)NOC(c1ccccc1)c1ccccc1", "REPORTED MEASUREMENT": "115 to 117 °C"}
